# ASSAY_SUMMARY: Stability in simulated intestinal fluid
# Assay type: in vitro ADME
# EXPERIMENTAL_PARAMETERS: 2 μM peptidomimetic, simulated intestinal fluid pH 7.5, 37° C., 24 h
VALUE_TYPE: % degradation of peptidomimetics in 24 h when incubated with simulated intestinal fluid (%)
Numbers only, in %.

COMPOUND | ENDPOINT_RESULT
CCc1cc(OC)ccc1-c1ccc(CC(CNC(CCCc2ccccc2F)C(N)=O)NC[C@H](CC(=O)O)NC(=O)[C@H](CO)NC(=O)[C@@H](NC(=O)C(C)(Cc2ccccc2F)NC(=O)[C@@H](NC(=O)CNC(=O)[C@H](CCC(N)=O)NC(=O)C(C)(C)NC(=O)[C@@H](N)Cc2c[nH]cn2)[C@H](C)O)[C@H](C)O)cc1 (single isomer, unassigned) | 00

// switching to the query compound
% degradation of peptidomimetics in 24 h when incubated with simulated intestinal fluid lookup needed for CCc1cc(OC)ccc1-c1ccc(CC(NC(=O)[C@H](CC(=O)O)NC(=O)[C@H](CO)NC(=O)[C@@H](NC(=O)C(C)(Cc2ccccc2F)NC(=O)[C@@H](NC(=O)CNC(=O)C(CCC#N)NC(=O)C(C)(C)NC(=O)[C@@H](N)Cc2c[nH]cn2)[C@H](C)O)[C@H](C)O)C(=O)NC(CCCc2ccccc2F)C(N)=O)cc1 (single isomer, unassigned) , thanks.
00
